Origin of measurements: PubChem BioAssay (NCATS)

experiment: Quantitative High-Throughput drug screen in 47 multiple myeloma cell lines against the NCATS MIPE library collection: OCIMY1_PLB cell viability assay (AID 1918979); settings: OCI-MY1 myeloma viability, CellTiter-Glo ATP, 48 h; series mostly up to 45.8 µM; note: nearly all actives have a fitted effect of over 35% in size;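 for viability: 100% = DMSO-only wells and 0% = cell-free media-only wells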
Results filed as inconclusive are left out. Calls of active or inactive are those of the source. Calls come from the whole dose curve; as a rule, active = well fitted cell-killing curve with a large enough effect; inconclusive = small, poorly fitted or top-dose-only effect, or effect the other way; inactive = no such curve, though single readings can be large or run the other way.
Log the outcome using a class from YES for active, NO for inactive

q: Record lookup: outcome of this test for Cc1ccc(NC(=O)C2(c3ccc4c(c3)OC(F)(F)O4)CC2)nc1-c1cccc(C(=O)O)c1 ?
a: YES

q: Record lookup: outcome of this test for COc1cc2c(Oc3ccc(-c4cnc(Nc5ccc(F)cc5)n(C)c4=O)cc3F)ccnc2cc1OCCCN1CCOCC1 ?
a: YES

q: Record lookup: outcome of this test for O=C(CCCCCCC(=O)Nc1ccc([C@H]2O[C@@H](CSc3nc(-c4ccccc4)c(-c4ccccc4)o3)C[C@@H](c3ccc(CO)cc3)O2)cc1)NO ?
a: YES

q: Record lookup: outcome of this test for COc1c(OCCCN2CCOCC2)ccc2c3n(c(=NC(=O)c4cnc(N)nc4)nc12)CCN3 ?
a: YES

q: Record lookup: outcome of this test for CC(=O)OCC(=O)[C@@]1(O)[C@H](C)C[C@H]2[C@@H]3C=C(C)C4=Cc5c(cnn5-c5ccccc5)C[C@]4(C)[C@@H]3[C@@H](O)C[C@@]21C ?
a: YES

q: Record lookup: outcome of this test for COc1cc(-c2nn(C3CCC(N4CCN(C(C)=O)CC4)CC3)c3ncnc(N)c23)ccc1NC(=O)c1cc2ccccc2n1C (stereo unspecified) ?
a: YES

q: Record lookup: outcome of this test for CC1=C(CO)C(=O)O[C@@H]([C@@H](C)[C@H]2CC[C@H]3[C@@H]4C[C@H]5O[C@]56[C@@H](O)C=CC(=O)[C@]6(C)[C@@H]4CC[C@]23C)C1 ?
a: YES

q: Record lookup: outcome of this test for Cc1ccc(C(=O)Nc2ccc(CN3CCN(C)CC3)c(C(F)(F)F)c2)cc1C#Cc1cnc2cccnn12 ?
a: YES

q: Record lookup: outcome of this test for O=C(Nc1ncc(-c2cc(C(F)F)nn2-c2c(Cl)cccc2Cl)s1)C1CC1 ?
a: YES

q: Record lookup: outcome of this test for C=CC(=O)Nc1cccc(Oc2nc(Nc3ccc(N4CCN(C)CC4)cc3)ncc2Cl)c1 ?
a: YES

q: Record lookup: outcome of this test for COc1cc2nccc(Oc3ccc(NC(=O)C4(C(=O)Nc5ccc(F)cc5)CC4)cc3)c2cc1OC ?
a: YES

q: Record lookup: outcome of this test for Nc1cc(C(F)(F)F)c(-c2cc(N3CCOCC3)nc(N3CCOCC3)n2)cn1 ?
a: YES

q: Record lookup: outcome of this test for COC(=O)c1ccc2c(C(=Nc3ccc(N(C)C(=O)CN4CCN(C)CC4)cc3)c3ccccc3)c(O)[nH]c2c1 ?
a: YES

q: Record lookup: outcome of this test for CC(C)c1ccccc1Cc1cc(C(=O)Nc2ccc(S(=O)(=O)c3ccccc3C(C)(C)C)cc2)c(O)c(O)c1O ?
a: YES

q: Record lookup: outcome of this test for CCCCc1nc2cc(C=CC(=O)NO)ccc2n1CCN(CC)CC ?
a: YES

q: Record lookup: outcome of this test for CC=C1NC(=O)[C@H]2CSSCCC=C[C@H](CC(=O)N[C@H](C(C)C)C(=O)N2)OC(=O)[C@H](C(C)C)NC1=O ?
a: YES

q: Record lookup: outcome of this test for CCCn1c(=O)c2[nH]c(-c3cnn(Cc4cccc(C(F)(F)F)c4)c3)nc2n(CC)c1=O ?
a: NO

q: Record lookup: outcome of this test for CCCCCN(CCC12CC3CC(CC(C3)C1)C2)C(=O)NCCCc1ccncc1 ?
a: NO

q: Record lookup: outcome of this test for Cn1cc(-c2ccncc2)c(-c2ccc(OCc3ccc4ccccc4n3)cc2)n1 ?
a: YES

q: Record lookup: outcome of this test for c1ccc2c(CCNc3ccc(Nc4ccncc4)cc3)c[nH]c2c1 ?
a: NO

q: Record lookup: outcome of this test for CCN(CC)CCNC(=O)c1ccc2nc(-c3ccccc3)c(-c3ccc(CN4CCC(n5c(=O)[nH]c6ccccc65)CC4)cc3)nc2c1 ?
a: YES

q: Record lookup: outcome of this test for CC(C)c1cnn2c(NCc3ccccc3)cc(N[C@@H](CO)[C@H](O)CO)nc12 ?
a: YES

q: Record lookup: outcome of this test for CC(=O)SC[C@@H](C)C(=O)N1CCC[C@H]1C(=O)N[C@@H](Cc1ccccc1)C(=O)O ?
a: NO

q: Record lookup: outcome of this test for Cc1nc2ccc(CN(C)c3ccc(C(=O)N[C@@H](CCC(=O)O)C(=O)O)s3)cc2c(=O)[nH]1 ?
a: NO

q: Record lookup: outcome of this test for COc1cccc2nc(-c3cccs3)nc(NN3C(=O)C=C(C)C3=O)c12 ?
a: YES

q: Record lookup: outcome of this test for O=C(c1ccc(Nc2nccc(-c3cc4ccccc4s3)n2)cc1)N1CCC(N2CCCC2)CC1 ?
a: YES

q: Record lookup: outcome of this test for CC(=O)Nc1nc(C)c(-c2ccc(Cl)c(S(=O)(=O)NCCO)c2)s1 ?
a: YES

q: Record lookup: outcome of this test for CC[C@@H]1C(=O)N(C)c2cnc(Nc3ccc(C(=O)NC4CCN(C)CC4)cc3OC)nc2N1C1CCCC1 ?
a: YES

q: Record lookup: outcome of this test for Cc1[nH]c2ccccc2c1CCNCc1ccc(C=CC(=O)NO)cc1 ?
a: YES

q: Record lookup: outcome of this test for CC(C)C[C@H](NC(=O)CNC(=O)c1cc(Cl)ccc1Cl)B(O)O ?
a: YES

q: Record lookup: outcome of this test for CN(C)CC=CC(=O)Nc1cc2c(Nc3ccc(F)c(Cl)c3)ncnc2cc1O[C@H]1CCOC1 ?
a: YES

====

test: Quantitative High-Throughput drug screen in 47 multiple myeloma cell lines against the NCATS MIPE library collection: JJN3_DSMZ cell viability assay (AID 1918966; note: potency is the fitted concentration of half-maximal effect; nearly all actives have a fitted effect of over 50% in size); details: JJN3 myeloma cells viability, CellTiter-Glo ATP, 48 h; series mostly up to 45.8 µM
Results filed as inconclusive are left out. Activity calls are given as the source filed them. The call rests on the fitted dose curve; in most records, active means well fitted cell-killing curve with a large enough effect; inconclusive means small, poorly fitted or top-dose-only effect, or effect the other way; inactive means no such curve, though single readings can be large or run the other way.
Observable: Potency

q: Item C[C@@H](Oc1cc(-n2cnc3ccc(CN4CCN(C)CC4)cc32)sc1C(N)=O)c1ccccc1C(F)(F)F : provide Potency
a: 18700 nM (active)

q: Item COc1ccc(F)c(F)c1C(=O)c1cnc(NC2CCN(S(C)(=O)=O)CC2)nc1N : provide Potency
a: 1320 nM (active)

q: Item CC1(C)CCC(c2ccc(Cl)cc2)=C(CN2CCN(c3ccc(C(=O)NS(=O)(=O)c4ccc(N[C@H](CCN5CCOCC5)CSc5ccccc5)c(S(=O)(=O)C(F)(F)F)c4)cc3)CC2)C1 : provide Potency
a: 9350 nM (active)

q: Item CC(C)(C)OC(=O)Nc1ccc(-c2cc(C(=O)NCCCCCCC(=O)NO)no2)cc1 : provide Potency
a: 2350 nM (active)

q: Item COCCn1c2c([n+](Cc3cnccn3)c1C)C(=O)c1ccccc1C2=O : provide Potency
a: 2.3 nM (active)

====

test: P-glycoprotein substrates identified in KB-8-5-11 adenocarcinoma cell line, qHTS therapeutic library screen (AID 1346987); conditions: KB-8-5-11 (P-gp overexpressing) viability, CellTiter-Glo, 72 h; series mostly up to 44.5 µM; note: nearly all actives have a fitted effect of over 65% in size
Inconclusive results are not listed. Activity calls are given as the source filed them. Calls come from the whole dose curve; as a rule, active = well fitted inhibition curve with a large enough effect; inconclusive = small, poorly fitted or top-dose-only effect; inactive = flat fitted curve, though single readings scatter.
Log the outcome using a class from active, inactive

q: Record lookup: outcome of this test for CCCCc1nc2cc(C=CC(=O)NO)ccc2n1CCN(CC)CC ?
a: active

q: Record lookup: outcome of this test for Cc1nc(Nc2n[nH]c3c2CN(C(=O)N[C@H](CN(C)C)c2ccccc2)C3(C)C)c2sccc2n1 ?
a: inactive

q: Record lookup: outcome of this test for CCCCCN(CCC12CC3CC(CC(C3)C1)C2)C(=O)NCCCc1ccncc1 ?
a: active

q: Record lookup: outcome of this test for Cn1c(CNc2ccc(C(=N)N)cc2)nc2cc(C(=O)N(CCC(=O)O)c3ccccn3)ccc21 ?
a: inactive

q: Record lookup: outcome of this test for CCCn1c(=O)c2[nH]c(-c3cnn(Cc4cccc(C(F)(F)F)c4)c3)nc2n(CC)c1=O ?
a: inactive

====

system: astro; assay: Drug repurposing screens with cells derived from glioblastoma tumor samples (AID 1345199); conditions: viability, ATP luminescence, 48 h; series mostly up to 45.9 µM; note: nearly all actives have a fitted effect of over 40% in size
Records with an inconclusive call do not appear. Activity calls are given as the source filed them. Calls follow the shape of the dose curve; as a rule, active = well fitted inhibition curve with a large enough effect; inconclusive = small, poorly fitted or top-dose-only effect; inactive = flat fitted curve, though single readings scatter.
Log the outcome using a class from true (1) (active), false (0) (inactive)

q: Record lookup: outcome of this test for CC1(C)O[C@@H]2C[C@@H]3[C@H]4C[C@@H](F)C5=CC(=O)C=C[C@]5(C)[C@@]4(F)[C@@H](O)C[C@]3(C)[C@]2(C(=O)CO)O1 ?
a: false (0)

q: Record lookup: outcome of this test for COC(=O)C1=C(C)NC(C)=C(C(=O)OCCN2CCN(C(c3ccccc3)c3ccccc3)CC2)C1c1cccc([N+](=O)[O-])c1 (stereo not drawn) ?
a: false (0)

q: Record lookup: outcome of this test for C[C@H]1C[C@@H]2[C@@H]([C@@H](O)C[C@@]3(C)[C@H]2CC[C@]3(O)C(=O)CO)[C@@]2(C)C=CC(=O)C=C12 ?
a: false (0)

q: Record lookup: outcome of this test for COc1c(N2C[C@@H]3CCCN[C@H]3C2)c(F)cc2c(=O)c(C(=O)O)cn(C3CC3)c12 ?
a: false (0)

q: Record lookup: outcome of this test for C=C1C(=CC=C2CCC[C@]3(C)[C@@H]([C@H](C)C=C[C@H](C)C(C)C)CC[C@@H]23)C[C@@H](O)C[C@@H]1O ?
a: true (1)

q: Record lookup: outcome of this test for O=c1[nH]c(=O)n(C2CCCO2)cc1F (stereo not drawn) ?
a: false (0)

q: Record lookup: outcome of this test for COc1ccc(CC2c3cc(OC)c(OC)cc3CC[N+]2(C)CCC(=O)OCCCCCOC(=O)CC[N+]2(C)CCc3cc(OC)c(OC)cc3C2Cc2ccc(OC)c(OC)c2)cc1OC (stereo not drawn) ?
a: false (0)

q: Record lookup: outcome of this test for Cc1nc2ccc(CN(C)c3ccc(C(=O)N[C@@H](CCC(=O)O)C(=O)O)s3)cc2c(=O)[nH]1 ?
a: false (0)
